Assay Overview: gradient 5% acetonitrile 3 min, to 50% in 2 min, to 85% in 15 min, held 3 min, 100 µL/min
Condition Summary: column: Zorbax Extend-C18 2.1 x 50 mm; eluents: water / acetonitrile, 0.1% formic acid
Parameter Measured: RP-LC retention time (s)

Cc1ccc(C(=O)N2CCC3(C2)C(=O)N(C)c2ccccc23)cc1 (centres undefined) | 792
O=C(NC1CC1)[C@@H]1C[C@H](Oc2ccccc2)CN1C(=O)c1n[nH]c2ccccc12 | 739
O=C(CN1c2ccc(F)cc2-c2ccccc2S1(=O)=O)Nc1cccc(F)c1 | 982
CCC(C(=O)NCCCN1CCCC1)n1nc(C)c2sc3ccccc3c2c1=O (centres undefined) | 669
COc1ccc(-c2cn3nc(N4CCCC(C(=O)N5CCCC5)C4)sc3n2)cc1 (centres undefined) | 981
CCCNC(=O)C1CCN(c2ccc(SCC(=O)Nc3cc(F)ccc3Cl)nn2)CC1 | 724
Cc1ccc(-c2ncc(NC(=O)c3cccs3)cn2)cc1 | 982
CN1CC[C@@H](c2ccc(F)cc2)[C@H](COc2ccc3c(c2)OCO3)C1 | 766
COc1ccc(CCNC(=O)Cn2nc3c(Oc4ccccc4)nccn3c2=O)cc1OC | 700

---

Assay Overview: gradient 5% acetonitrile 3 min, to 50% in 2 min, to 85% in 15 min, held 3 min, 100 µL/min
Condition Summary: column: Zorbax Extend-C18 2.1 x 50 mm; eluents: water / acetonitrile, 0.1% formic acid
Parameter Measured: RP-LC retention time (s)

Worked cases, RP-LC retention time given:
CCn1cnc(S(=O)(=O)N2CCCC(C(=O)Nc3ccc(C)c(Cl)c3)C2)c1 (centres undefined) | 861
CCOc1cccc(CNC(=O)c2sc3ncccc3c2-n2cccc2)c1 | 1050
CC1=C(c2cccc(Cl)c2)S(=O)(=O)N=C1N1CCCN(C(=O)c2ccoc2)CC1 | 806
CC1=C(c2ccc(Cl)cc2)S(=O)(=O)N=C1N1CCCN(C(=O)C2CCC2)CC1 | 850
Cc1nc(C)c2c(n1)N(Cc1cccc(F)c1)C(=O)CC2 | 666

1: Fc1ccc(C2Cn3nnc(-c4nc(-c5ccc(Cl)cc5)no4)c3CO2)cc1 (centres undefined)
2: CC(=O)c1ccc(S(=O)(=O)N2CCC(CN3CCCC(C)C3)CC2)cc1 (centres undefined)
input: Sort 1 and 2 by RP-LC retention time descending and give the first. To answer, give the label that identifies your chosen option.
output: 1

---

Assay Overview: gradient 5% acetonitrile 3 min, to 50% in 2 min, to 85% in 15 min, held 3 min, 100 µL/min
Condition Summary: column: Zorbax Extend-C18 2.1 x 50 mm; eluents: water / acetonitrile, 0.1% formic acid
Parameter Measured: RP-LC retention time (s)

1: CC(C)S(=O)(=O)c1cccc(C(=O)Nc2nc(-c3cc([N+](=O)[O-])cs3)cs2)c1
2: CC1CCN(c2cc(-c3nc(-c4ccccc4)no3)c3ccccc3n2)CC1
input: Larger number for RP-LC retention time: 1 , or 2 ? Mark your selection by writing its label.
output: 2

---

Assay Overview: gradient 5% acetonitrile 3 min, to 50% in 2 min, to 85% in 15 min, held 3 min, 100 µL/min
Condition Summary: column: Zorbax Extend-C18 2.1 x 50 mm; eluents: water / acetonitrile, 0.1% formic acid
Parameter Measured: RP-LC retention time (s)

a: Cc1c(C(=O)N2CCCC2)cnn1-c1cc(-c2nc(C(C)(C)C)no2)ccn1
b: Cn1cc(-c2ccncc2)cc1C(=O)NCc1ccc(Cl)cc1
input: Please tell me which of the two, a or b , has the higher reported RP-LC retention time value. When you have decided, please share the label of that item.
output: a
(a: 1030 s, b: 646 s)
